- system_tested: PI3Kα (Homo sapiens (Human))
- Sequence (P42336 whole entry): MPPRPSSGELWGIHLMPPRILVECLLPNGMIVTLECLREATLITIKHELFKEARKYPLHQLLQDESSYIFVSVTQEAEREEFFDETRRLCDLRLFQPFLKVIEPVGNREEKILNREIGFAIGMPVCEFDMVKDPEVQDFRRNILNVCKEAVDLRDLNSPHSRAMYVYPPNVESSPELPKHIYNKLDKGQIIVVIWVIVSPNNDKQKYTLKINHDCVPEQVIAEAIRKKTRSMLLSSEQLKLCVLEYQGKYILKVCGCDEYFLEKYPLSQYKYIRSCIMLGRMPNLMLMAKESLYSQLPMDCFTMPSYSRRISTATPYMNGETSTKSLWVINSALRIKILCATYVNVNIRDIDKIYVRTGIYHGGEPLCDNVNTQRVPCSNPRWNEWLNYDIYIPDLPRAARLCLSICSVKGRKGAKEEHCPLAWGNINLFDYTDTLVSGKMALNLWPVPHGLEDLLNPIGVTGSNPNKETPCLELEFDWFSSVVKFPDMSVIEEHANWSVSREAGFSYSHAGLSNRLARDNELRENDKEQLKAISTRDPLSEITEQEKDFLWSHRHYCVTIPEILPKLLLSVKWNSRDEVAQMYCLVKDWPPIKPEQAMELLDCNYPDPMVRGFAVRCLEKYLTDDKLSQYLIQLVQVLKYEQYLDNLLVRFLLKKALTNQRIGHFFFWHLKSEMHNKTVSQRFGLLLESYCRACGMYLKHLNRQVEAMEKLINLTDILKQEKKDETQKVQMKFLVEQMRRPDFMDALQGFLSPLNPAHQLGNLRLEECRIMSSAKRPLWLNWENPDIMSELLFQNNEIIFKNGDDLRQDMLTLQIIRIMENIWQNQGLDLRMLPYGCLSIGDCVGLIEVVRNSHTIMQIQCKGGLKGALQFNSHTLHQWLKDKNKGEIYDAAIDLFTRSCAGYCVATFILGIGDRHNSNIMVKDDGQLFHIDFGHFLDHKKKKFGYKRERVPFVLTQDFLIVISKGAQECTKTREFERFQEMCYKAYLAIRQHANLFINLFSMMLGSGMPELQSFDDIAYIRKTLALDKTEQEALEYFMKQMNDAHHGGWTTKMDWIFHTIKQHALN
- Sequence (P27986 whole entry partner): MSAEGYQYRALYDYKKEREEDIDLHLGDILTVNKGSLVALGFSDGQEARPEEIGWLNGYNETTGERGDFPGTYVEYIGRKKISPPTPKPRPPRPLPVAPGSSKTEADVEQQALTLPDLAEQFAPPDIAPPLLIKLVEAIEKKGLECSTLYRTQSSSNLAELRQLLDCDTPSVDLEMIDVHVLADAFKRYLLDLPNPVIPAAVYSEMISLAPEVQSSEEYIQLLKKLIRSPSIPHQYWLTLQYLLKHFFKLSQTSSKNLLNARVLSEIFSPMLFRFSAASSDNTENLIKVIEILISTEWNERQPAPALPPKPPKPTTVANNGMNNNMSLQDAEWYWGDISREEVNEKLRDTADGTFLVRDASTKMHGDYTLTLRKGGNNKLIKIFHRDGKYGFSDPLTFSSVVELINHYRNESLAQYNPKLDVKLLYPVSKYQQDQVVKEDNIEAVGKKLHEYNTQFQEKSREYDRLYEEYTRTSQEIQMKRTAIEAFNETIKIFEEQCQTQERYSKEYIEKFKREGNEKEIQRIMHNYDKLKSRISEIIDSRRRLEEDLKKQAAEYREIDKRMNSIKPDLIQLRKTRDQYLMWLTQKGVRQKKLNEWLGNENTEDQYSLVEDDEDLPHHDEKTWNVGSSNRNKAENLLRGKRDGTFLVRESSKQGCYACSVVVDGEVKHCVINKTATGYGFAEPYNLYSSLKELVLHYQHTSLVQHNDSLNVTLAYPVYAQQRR
- experiment_summary: PI3Kα enzyme activity inhibition IC50 evaluation assay
- Format: biochemical
- cond: ratio PI3Kα vs PI3Kδ
experimental_readout: α/δ selectivity

The following compounds have reported results that may help.
compound | α/δ selectivity
COc1ncc(-c2nc(N3CCOCC3)nc3c(CN4CCN(C(=O)CO)CC4)c(C)sc23)cc1NS(C)(=O)=O | 13
COc1ncc(-c2nc(N3CCOCC3)nc3c(CN4CCC(OC)CC4)c(C)sc23)cc1NS(C)(=O)=O | 257
COc1ncc(-c2nc(N3CCOCC3)nc3c(CN4CCC(N5CCC[C@H]5C(F)(F)F)CC4)c(C)sc23)cc1NS(C)(=O)=O | 430
COc1ncc(-c2nc(N3CCOCC3)nc3c(CN4CCC(N5CCCC5)C(F)(F)C4)c(C)sc23)cc1NS(C)(=O)=O (stereo not shown) | 175
Cc1nc(Cl)cn1-c1nc(N2CCOCC2)nc2c(CN3CCN(C(=O)C(C)C)CC3)csc12 | 40

1: COc1ncc(-c2nc(N3CCOCC3)nc3c(CN4CCC(N5CCCCC5=O)CC4)c(C)sc23)cc1NS(C)(=O)=O
2: COc1ncc(-c2nc(N3CCOCC3)nc3c(CN4CCN(C)CC4)csc23)cc1NS(=O)(=O)c1ccc(F)cc1F
Pick one: 1 or 2 . Which one has the lower reported α/δ selectivity? Bench note: the answer is the label of the chosen record.
2

###

- system_tested: PI3Kγ (Homo sapiens (Human), UniProt P48736)
- Sequence (P48736 whole entry): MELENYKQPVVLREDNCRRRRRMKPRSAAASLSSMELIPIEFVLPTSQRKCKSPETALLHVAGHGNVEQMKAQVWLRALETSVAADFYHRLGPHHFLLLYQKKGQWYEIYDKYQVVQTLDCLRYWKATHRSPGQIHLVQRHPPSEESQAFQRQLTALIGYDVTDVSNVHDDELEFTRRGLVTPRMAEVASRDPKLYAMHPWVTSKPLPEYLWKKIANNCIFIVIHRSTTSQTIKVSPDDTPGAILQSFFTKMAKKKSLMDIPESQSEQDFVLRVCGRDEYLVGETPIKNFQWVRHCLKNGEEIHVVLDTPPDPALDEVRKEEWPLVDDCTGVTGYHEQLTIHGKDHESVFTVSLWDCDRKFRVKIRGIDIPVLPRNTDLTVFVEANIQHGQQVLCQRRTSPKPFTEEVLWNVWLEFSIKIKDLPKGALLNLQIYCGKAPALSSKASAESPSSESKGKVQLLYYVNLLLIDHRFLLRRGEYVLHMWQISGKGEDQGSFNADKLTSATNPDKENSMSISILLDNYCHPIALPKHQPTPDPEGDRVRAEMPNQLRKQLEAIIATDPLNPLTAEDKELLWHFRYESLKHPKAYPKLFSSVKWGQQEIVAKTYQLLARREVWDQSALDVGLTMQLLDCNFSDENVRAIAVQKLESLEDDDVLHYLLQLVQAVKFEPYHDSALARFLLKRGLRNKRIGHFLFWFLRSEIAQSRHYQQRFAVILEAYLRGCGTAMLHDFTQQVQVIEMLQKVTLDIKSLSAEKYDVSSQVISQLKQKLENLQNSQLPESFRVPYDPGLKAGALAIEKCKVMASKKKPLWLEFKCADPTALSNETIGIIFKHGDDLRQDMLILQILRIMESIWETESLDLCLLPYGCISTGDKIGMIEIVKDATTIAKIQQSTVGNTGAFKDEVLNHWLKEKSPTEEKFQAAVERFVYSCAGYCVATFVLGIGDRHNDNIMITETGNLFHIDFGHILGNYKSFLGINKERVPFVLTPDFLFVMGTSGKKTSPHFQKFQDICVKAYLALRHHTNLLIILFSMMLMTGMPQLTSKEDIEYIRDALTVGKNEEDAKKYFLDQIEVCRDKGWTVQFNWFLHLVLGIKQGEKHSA
- experiment_summary: PI3Kγ enzyme activity inhibition IC50 evaluation assay
- Format: biochemical
- cond: ratio PI3Kγ vs PI3Kδ
Reported γ/δ selectivity is given for each of the following compounds.

The following compounds have reported results that may help.
molecular_string | γ/δ selectivity
COc1ncc(-c2nc(N3CCOCC3)nc3c(CN4CCN(C)CC4)c(C)sc23)cc1NS(C)(=O)=O | >571
COc1ncc(-c2nc(N3CCOCC3)nc3c(CN4CCC(C(C)(C)F)CC4)c(C)sc23)cc1NS(C)(=O)=O | >1162

Okay, now this compound:
Please give the documented γ/δ selectivity of COc1ncc(-c2nc(N3CCOCC3)nc3c(CN4CCC5(CC4)CNC5)c(C)sc23)cc1NS(C)(=O)=O
>392

###

- system_tested: PI3Kγ (Homo sapiens (Human), UniProt P48736)
- experiment_summary: PI3Kγ enzyme activity inhibition IC50 evaluation assay
- Type: biochemical
- cond: ratio PI3Kγ vs PI3Kδ
experimental_readout: γ/δ selectivity

The following molecules have reported results that may help.
molecule | experimental_readout | obs_value
COc1ncc(-c2nc(N3CCOCC3)nc3c(CN4CCC(OC)CC4)c(C)sc23)cc1NS(C)(=O)=O | γ/δ selectivity | >840
CC(C)(O)C1CCN(Cc2csc3c(-c4cccc5[nH]ccc45)nc(N4CCOCC4)nc23)CC1 | γ/δ selectivity | >282
COc1ncc(-c2nc(N3CCOCC3)nc3c(CN4CCC(C(C)(C)OC)CC4)c(C)sc23)cc1NS(C)(=O)=O | γ/δ selectivity | >1298

Okay, now this molecule:
Find the measured γ/δ selectivity of COc1ncc(-c2nc(N3CCOCC3)nc3c(OC4CCC(N5CCCCC5)CC4)c(C)sc23)cc1NS(C)(=O)=O (stereo not shown) with PI3Kγ (Homo sapiens (Human), UniProt P48736) as test system.
>909

###

- system_tested: UniProt:O00329
pIC50: −log10 of the molar value.
experimental_readout: pIC50

The following compounds have reported results that may help.
compound | obs_value
COc1ncc(-c2nc(N3CCOCC3)nc3c(CN4CCC5(CC4)COC5)c(C)sc23)cc1NS(C)(=O)=O [Compound 115] | 7.89
COc1ncc(-c2nc(N3CCOCC3)nc3c(CN4CCN(C(=O)C(C)C)CC4)csc23)cc1NS(C)(=O)=O [Compound 47] | 8.46
COc1ncc(-c2nc(N3CCOCC3)nc3c(CN4CCN(C(C)(C)CO)CC4)c(C)sc23)cc1NS(C)(=O)=O [Compound 119] | 8.30
COc1ncc(-c2nc(N3CCOCC3)nc3c(CN4CCC(N5CCC5)CC4)c(C)sc23)cc1NS(C)(=O)=O [Compound 148] | 8.33
COc1ncc(-c2nc(N3CCOCC3)nc3c(CN4CCC(N(C)C)CC4)c(C)sc23)cc1NS(C)(=O)=O [Compound 93] | 8.00

P: COc1ncc(-c2nc(N3CCOCC3)nc3c(CN4CCC(=O)CC4)c(C)sc23)cc1NS(C)(=O)=O [Compound 107]
Q: COc1ncc(-c2nc(N3CCOCC3)nc3c(CCN4CCCCC4)c(C)sc23)cc1NS(C)(=O)=O [Compound 135]
R: COc1ncc(-c2nc(N3CCOCC3)nc3c(CN4CCC(F)CC4)c(C)sc23)cc1NS(C)(=O)=O [Compound 105]
# ascending order, key=pIC50 Give your ranking as a list of the labels in the requested order.
R, P, Q

###

- system_tested: PI3Kα (Homo sapiens (Human))
- experiment_summary: PI3Kα enzyme activity inhibition IC50 evaluation assay
- Type: biochemical
- cond: ratio PI3Kα vs PI3Kδ
experimental_readout: α/δ selectivity

The following compounds have reported results that may help.
compound | α/δ selectivity
COc1ncc(-c2nc(N3CCOCC3)nc3c(CN4CCN(C(=O)[C@@H](C)O)CC4)c(C)sc23)cc1NS(C)(=O)=O [Compound 73] | 18
COc1ncc(-c2nc(N3CCOCC3)nc3c(CN4CCN(C(C)(C)C)CC4)c(C)sc23)cc1NS(C)(=O)=O [Compound 89] | 48
COc1ncc(-c2nc(N3CCOCC3)nc3c(CN4CCC(OC(C)C)CC4)c(C)sc23)cc1NS(C)(=O)=O [Compound 145] | 287
COC(=O)N1CCN(Cc2c(C)sc3c(-c4cnc(OC)c(NS(C)(=O)=O)c4)nc(N4CCOCC4)nc23)CC1 [Compound 114] | 44

1: Cc1cn(-c2nc(N3CCOCC3)nc3c(CN4CCN(C(=O)C5CC5)CC4)csc23)c(C)n1 [Compound 37]
2: CS(=O)(=O)N1CCN(Cc2csc3c(-c4c(F)ccc5[nH]ccc45)nc(N4CCOCC4)nc23)CC1 [Compound 1]
Hi there! Just curious which has the higher α/δ selectivity between 1 and 2 . Bench note: the answer is the label of the chosen record.
1
(1: 38, 2: 12)

###

Reported α/δ selectivity is given for each of the following compounds.
- system_tested: PI3Kα (Homo sapiens (Human))
- experiment_summary: PI3Kα enzyme activity inhibition IC50 evaluation assay
- Assay type: biochemical
- cond: ratio PI3Kα vs PI3Kδ

The following compounds have reported results that may help.
molecular_string | obs_value
COc1ncc(-c2nc(N3CCOCC3)nc3c(CN4CCC(C(C)(C)O)CC4)c(C)sc23)cc1NS(=O)(=O)C(F)(F)F | 92
c1cc(-c2nc(N3CCOCC3)nc3c(CN4CCC(N5CCOCC5)CC4)csc23)c2cc[nH]c2c1 | >200

Please give the documented α/δ selectivity of CC(C)(O)C1CCN(Cc2csc3c(-c4cccc5[nH]ccc45)nc(N4CCOCC4)nc23)CC1
>282

###

Below are pIC50 values measured for PI3Kδ (Homo sapiens (Human), UniProt O00329).
pIC50: −log10 of the molar value.
experimental_readout: pIC50

The following compounds have reported results that may help.
molecular_string | obs_value
COc1ncc(-c2nc(N3CCOCC3)nc3c(CN4CCC(N5C[C@@H](C)O[C@@H](C)C5)CC4)csc23)cc1NS(C)(=O)=O | 8.25
COc1ncc(-c2nc(N3CCOCC3)nc3c(CN4CCN(C(=O)[C@H](C)O)CC4)c(C)sc23)cc1NS(C)(=O)=O | 8.36
COc1ncc(-c2nc(N3CCOCC3)nc3c(CN4CC[C@H](N5CCCC5)C4)c(C)sc23)cc1NS(C)(=O)=O | 7.72
COc1ncc(-c2nc(N3CCOCC3)nc3c(CN4CCC(C(C)(C)O)CC4)csc23)cc1NS(=O)(=O)C1CC1 | 7.89
COc1ncc(-c2nc(N3CCOCC3)nc3c(CN4CCOCC4)csc23)cc1NS(C)(=O)=O | 7.89
c1cc(-c2nc(N3CCOCC3)nc3c(CN4CCN(C5CCOCC5)CC4)csc23)c2cc[nH]c2c1 | 7.60
COC(=O)N1CCN(Cc2c(C)sc3c(-c4cnc(OC)c(NS(C)(=O)=O)c4)nc(N4CCOCC4)nc23)CC1 | 8.30
CC(C)C(=O)N1CCN(Cc2csc3c(-n4ccnc4C(F)(F)F)nc(N4CCOCC4)nc23)CC1 | 7.15

A: O=C(CO)N1CCN(Cc2csc3c(-c4cccc5[nH]ccc45)nc(N4CCOCC4)nc23)CC1
B: COc1ncc(-c2nc(N3CCOCC3)nc3c(CN4CCC(C(C)(C)F)CC4)c(C)sc23)cc1NS(=O)(=O)C1CC1
Hi there! Just curious which has the higher pIC50 between A and B . Bench note: the answer is the label of the chosen record.
A
